# Test system: TK-10 renal
# assayMethodText: NCI tumour cell line growth inhibition, 48 h
In this section, each of the compounds is paired with its reported TGI.

Entry under review: `Cc1ccccc1N=C(N)Nc1ccccc1C` . Reported TGI?
> 100 µM

Entry under review: `CC(=O)Nc1ccc(OC/C(N)=N/NC(=O)c2ccncc2)cc1` . Reported TGI?
> 100 µM

Entry under review: `Cn1cc(-c2ccc3nnc(Sc4ccc5ncccc5c4)n3n2)cn1` . Reported TGI?
> 100 µM

Entry under review: CC(C)Cc1ccc(C(C)CC2=CCC(CN(C)C)C2=O)cc1 (configuration not stated) . Reported TGI?
> 22.7 µM

Entry under review: `c1ccc2c(c1)oc1ccc3nsnc3c12` . Reported TGI?
> 10 µM

Entry under review: CC(C)(C)C(=CS(=O)/N=C/c1ccccc1)C(C)(C)C (configuration not stated) . Reported TGI?
> 100 µM

Entry under review: `O=c1oc(C(C(F)(F)F)C(F)(F)F)nc2ccccc12` . Reported TGI?
> 100 µM

====

# Test system: A549 NSCLC
# assayMethodText: NCI tumour cell line growth inhibition, 48 h
resultType: TGI

> print(dat)
                                   compound  valuemeasured
1           Cc1ccc(N=Nc2c(O)ccc3ccccc23)cc1       > 100 µM
2  Cc1ccc(S(=O)(=O)c2ccccc2[N+](=O)[O-])cc1       > 100 µM
3  c1ccc2c(-c3nc(-c4c[nH]c5ccncc45)cs3)c[nH]c2c1        6.21 µM
4  O=C1CC(c2[nH]nc3ccccc23)C(=O)N1c1ccccc1 (stereo unspecified)       > 100 µM
5                        CN(C)CCSS(=O)(=O)O       > 100 µM
6  CC(=O)O[C@]1(C)OC(=O)[C@@H](CC(C)C)N1[N+](=O)[O-]       > 100 µM
7  O=C1CCC(N2C(=O)c3ccccc3C2=O)C(=O)N1 (stereo unspecified)       > 100 µM
8  Cc1cc(C)c2c(c1)C(=O)/C(=C/c1ccccc1C(=O)O)C2       > 100 µM

Entry under review: NNC(=O)C1(NC(=O)c2ccccc2)C(c2ccccc2)C(c2ccccc2)=NN1c1ccccc1 (stereo unspecified) . Reported TGI?
> 100 µM

Entry under review: `CC(C)(C)OC(=O)NCCCn1c2c(c3ccccc3c1=O)C(=O)c1ccccc1-2` . Reported TGI?
> 100 µM

Entry under review: `O=C(O)COc1cc(-c2ccccc2)nc2cc(F)ccc12` . Reported TGI?
> 100 µM

====

# Test system: 786-0 renal
# assayMethodText: NCI tumour cell line growth inhibition, 48 h
In this section, each of the compounds is paired with its reported TGI.

Answered cases to consult:
> print(dat)
                                    compound  resulttype  valuemeasured
 1   Cc1cc(OC(=O)NCn2cc(-c3ccccc3)nn2)ccc1Cl         TGI       > 100 µM
 2  C=C1C(=O)OC2CC(C)C3CC(O)OC(OCC)C3(C)CC12 (stereo not drawn)         TGI        25.1 µM
 3  C=CCO/N=C(\OC(=O)c1ccc([N+](=O)[O-])cc1)c1ccccc1         TGI       > 100 µM
 4  O=C1/C(=C/c2ccccc2)CN(C(=O)CCN2CCCC2)C/C1=C\c1ccccc1         TGI        1.94 µM
 5  COc1ncnc(S(=O)(=O)c2ccc(N=C3C(=O)N(CN4CCN(c5cc6c(cc5F)c(=O)c(C(=O)O)cn6C5CC5)CC4)c4ccc(Cl)cc43)cc2)c1OC         TGI        > 50 µM
 6  O=c1ncccn1C1OC(CO)C(O)C1O (stereo not drawn)         TGI       > 100 µM
 7  CC(=O)Nc1ccc(OC/C(N)=N/NC(=O)c2ccncc2)cc1         TGI       > 100 µM
 8  Cc1nn2c(/C=C3/C(=O)Nc4cc(Cl)ccc43)c(-c3ccccc3)nc2s1         TGI        4.37 µM
 9  CN(C)Cc1cc(C(=O)/C=C/c2ccccc2)cc(CN(C)C)c1O         TGI       > 100 µM
10  CC(C)(C)C(=CS(=O)/N=C/c1ccccc1)C(C)(C)C (stereo not drawn)         TGI       > 100 µM

Entry under review: `CN=C(/N=c1\ssc(=NC)n1C)N(C)C` . Reported TGI?
> 100 µM

Entry under review: `O=C(Nc1ccccc1C(=O)NCc1ccccc1)/C(=C/c1ccccc1)NC(=O)c1ccccc1` . Reported TGI?
> 100 µM

Entry under review: `O=S(=O)(NCn1ccc2ccccc21)c1ccccc1` . Reported TGI?
> 100 µM
